METHOD_SUMMARY: Metabolic stability in human liver microsomes assessed as intrinsic clearance preincubated for 5 mins followed by addition of NADPH and assessed as intrinsic clearance by LC-MS/MS analysis
Type: ADME, Microsome
EXPERIMENTAL_CONTEXT: read-out: CLH
EXPERIMENTAL_ENDPOINT: microsomal CLint

Consider CC(C)OC(=O)[C@H](C)NP(=O)(OC[C@@]1(F)O[C@@H](n2ccc(=O)[nH]c2=O)[C@@]2(CCS2)[C@@H]1O)Oc1ccccc1 (stereo partly specified) . Its measured microsomal CLint is > 347 µL/min/mg

====

METHOD_SUMMARY: Stability of compound in fasted state simulated intestinal fluid incubated for 6 hrs and assessed as half-life at 1 uM by LC-MS/MS analysis
Type: ADME
EXPERIMENTAL_ENDPOINT: half-life at 1 µM (min)
One number for each entry, in min.

Consider CC(C)OC(=O)[C@H](C)NP(=O)(OC[C@@]1(F)O[C@@H](n2ccc(=O)[nH]c2=O)[C@@]2(CCS2)[C@@H]1O)Oc1ccccc1 (stereo partly specified) . Its measured half-life at 1 µM is 12

====

METHOD_SUMMARY: Stability of compound in human plasma assessed as half-life incubated for 24 hrs and assessed as half-life at 1 uM by LC-MS/MS analysis
Assay type: ADME, cell-free
EXPERIMENTAL_ENDPOINT: half-life at 1 µM

Consider CC(C)OC(=O)[C@H](C)NP(=O)(OC[C@@]1(F)O[C@@H](n2ccc(=O)[nH]c2=O)[C@@]2(CCS2)[C@@H]1O)Oc1ccccc1 (stereo partly specified) . Its measured half-life at 1 µM is > 30 h

====

METHOD_SUMMARY: Stability of compound in simulated gastric fluid incubated for 6 hrs and assessed as half-life at 1 uM by LC-MS/MS analysis
Type: ADME
EXPERIMENTAL_ENDPOINT: half-life at 1 µM

Consider CC(C)OC(=O)[C@H](C)NP(=O)(OC[C@@]1(F)O[C@@H](n2ccc(=O)[nH]c2=O)[C@@]2(CCS2)[C@@H]1O)Oc1ccccc1 (stereo partly specified) . Its measured half-life at 1 µM is > 360 min

====

METHOD_SUMMARY: Metabolic stability in mouse liver microsomes preincubated for 5 mins followed by addition of NADPH and assessed as intrinsic clearance by LC-MS/MS analysis
Type: ADME, Microsome
EXPERIMENTAL_CONTEXT: read-out: CLH
EXPERIMENTAL_ENDPOINT: microsomal CLint

Consider CC(C)OC(=O)[C@H](C)NP(=O)(OC[C@@]1(F)O[C@@H](n2ccc(=O)[nH]c2=O)[C@@]2(CCS2)[C@@H]1O)Oc1ccccc1 (stereo partly specified) . Its measured microsomal CLint is > 347 µL/min/mg

====

METHOD_SUMMARY: Stability of compound in simulated gastric fluid incubated for 6 hrs at 1 uM and assessed as compound remaining after 6 hrs by LC-MS/MS analysis
Assay type: ADME
EXPERIMENTAL_CONTEXT: read-out: Stability
EXPERIMENTAL_ENDPOINT: remaining at 6 h, 1 µM (%)
One number for each entry, in %.

Consider CC(C)OC(=O)[C@H](C)NP(=O)(OC[C@@]1(F)O[C@@H](n2ccc(=O)[nH]c2=O)[C@@]2(CCS2)[C@@H]1O)Oc1ccccc1 (stereo partly specified) . Its measured remaining at 6 h, 1 µM is 93
